Sourced from PubChem BioAssay

ASSAY TEXT: compound effects on multiple myeloma cell viability – MM1S, calcein-AM fluorescence, 48 h, basal, profiling panel (AID 1165); note: test concentration not given here
CONDITION SUMMARY: higher = more signal
MEASUREMENT TYPE: z-score

COMPOUND: [N-]=[N+]=NCc1ccccc1C[C@@]1(C(N)=O)N=C(c2ccc(OCCCO)cc2)O[C@@H]1c1ccccc1
MEASUREMENT TYPE: z-score
NUMERIC VALUE: -3.04
//
COMPOUND: Cc1cc(C)c(C(O)C2C=CC3C(=O)N(c4ccccc4)C(=O)C3N2Nc2ccccc2F)c(C)c1 (configuration not stated)
MEASUREMENT TYPE: z-score
NUMERIC VALUE: -1.57
//
COMPOUND: O=C(Cc1ccccc1)[C@H]1C2C=CCCC(c3ccccc3)=C2CN1Cc1ccccc1 (some centres not stated)
MEASUREMENT TYPE: z-score
NUMERIC VALUE: 0.743
//
COMPOUND: CC(C)NC(=O)[C@@]1(C)c2ccccc2C(=O)N(Cc2ccc(OC(F)(F)F)cc2)[C@H]1c1ccc(CO)cc1
MEASUREMENT TYPE: z-score
NUMERIC VALUE: -0.0831
//
COMPOUND: CCOC(=O)C1=CC[C@@H](c2ccccc2F)N(S(=O)(=O)c2ccc(C)cc2)[C@H]1c1ccccc1
MEASUREMENT TYPE: z-score
NUMERIC VALUE: -1.47
//
COMPOUND: O=C1O[C@H](c2ccccc2)[C@H](c2ccccc2)N2[C@H]1[C@@H](C(=O)O)[C@]1(C(=O)Nc3ccc(C#CCCO)cc31)[C@H]2c1ccccc1OCCO
MEASUREMENT TYPE: z-score
NUMERIC VALUE: 0.0409
//
COMPOUND: COC(=O)C1=CC(CCCO)=CC(c2ccc(CN3CCCC3)cc2)N(Cc2cccc(OC(F)(F)F)c2)C=C1C(=O)OC (configuration not stated)
MEASUREMENT TYPE: z-score
NUMERIC VALUE: 1.04
//
COMPOUND: COCCOC(=O)N1C(=O)[C@@]2(c3cc(C#CC4(O)CCCCCC4)ccc31)[C@H](C(=O)N1CCc3cc(OC)c(OC)cc3C1)[C@H]1C(=O)O[C@H](c3ccccc3)[C@H](c3ccccc3)N1[C@@H]2c1ccc(OCCO)cc1
MEASUREMENT TYPE: z-score
NUMERIC VALUE: -1.83
//
COMPOUND: C=CCC(OC(C)=O)[C@@H]1[C@@H](N(Cc2ccc(-c3cccc(C(F)(F)F)c3)o2)C(=O)c2ccc(-c3ccccc3)cc2)c2cc(OCCCO)ccc2N1C(=O)Cc1ccc2ccccc2c1 (some centres not stated)
MEASUREMENT TYPE: z-score
NUMERIC VALUE: 0.502
//
COMPOUND: NC(=O)NCC#Cc1ccc2c(c1)[C@]1(C(=O)N2)[C@H](c2ccccc2OCCO)N2[C@H](c3ccccc3)[C@H](c3ccccc3)OC(=O)[C@H]2[C@@H]1C(=O)NC[C@H](O)c1ccccc1
MEASUREMENT TYPE: z-score
NUMERIC VALUE: 0.493
//
COMPOUND: COc1ccc(C(=O)Nc2ccc(CN3C(=O)[C@]4(O[C@H](CC(=O)N5Cc6ccccc6C[C@H]5CO)[C@@H]([Si](C)(C)c5ccc(OC)cc5)[C@@H]4C)c4ccccc43)cc2)cc1
MEASUREMENT TYPE: z-score
NUMERIC VALUE: -1.6
//
COMPOUND: COCCOC(=O)N1C(=O)[C@@]2(c3cc(C#CC4(O)CCCCCC4)ccc31)[C@H](C(=O)Nc1nc3ccccc3s1)[C@H]1C(=O)O[C@H](c3ccccc3)[C@H](c3ccccc3)N1[C@@H]2c1ccc(O)cc1
MEASUREMENT TYPE: z-score
NUMERIC VALUE: -0.227
